Examples of compounds with documented % Inhibition n=1 48h follow.
System: G. duodenalis BRIS/91/HEPU/1279
EXPERIMENTAL_PROTOCOL: Primary Giardia screen at 10 µM (live-cell imaging, automated counting)
Assay type: cell-based, Giardia duodenalis
STATED_CONDITIONS: 48 h, first singlicate assay
Report only the number, with the unit % understood.

Take a look at these entries with their results.
1) COc1ccc(S(=O)(=O)N2CCN(C(=O)c3cc(C)n(C(C)C)c3C)CC2)cc1OC = 14.4
2) Cc1nn(Cc2ccccc2)c2sc(C(=O)N3CCN(C(=O)N4CCCCC4)CC3)cc12 = 14.0
3) CC1(c2ccco2)NC(=O)N(CC(=O)c2ccccc2)C1=O (stereo not drawn) = 12.8

Observed % Inhibition n=1 48h on G. duodenalis BRIS/91/HEPU/1279 for COC(=O)C1=C(C)N(C(C)C)C(=O)C1(NC(=O)C1CCCCC1)C(F)(F)F (stereo not drawn) , please.
0.0

Can you check CC1=NN(C(=O)COc2ccc(C)c(C)c2)C(O)(C(F)(F)F)C1 (stereo not drawn) next?
0.0

Field entry: `CCc1ccc(NC(=O)N2CCc3c(c(-c4nc(C)no4)nn3C)C2)cc1`
19.4

Now consider `Cc1ccc(CNC(=O)c2ccc(-n3cnc(NC(=O)C(C)C)c3)cc2)cc1` .
29.7

Same read-out for `COc1ccc(CNC(=O)c2sc(Nc3ccc(F)cn3)nc2C)cc1` ?
12.4

Repeat for the following compound: `Cc1ccc(C(=O)N2CCCN(S(C)(=O)=O)CC2)c(=O)[nH]1`
19.8

Also, `COc1ccc(CNS(=O)(=O)c2c(C)nc3sc(C)nn23)cc1` please.
4.3

What do you get for `COc1ccc(-c2nc(Cn3nnc(C(=O)Nc4ccc(F)cc4F)c3N)c(C)o2)c(OC)c1` ?
3.5

Lookup `CCN(CC)S(=O)(=O)c1ccc2c(c1)cc(C(=O)NC1CCCC1)n2C`
0.0

Please do the same for `COc1ccc(S(=O)(=O)Nc2cc3c(cc2NCc2ccccc2)n(C)c(=O)n3C)cc1OC` as well.
14.1

Again, but for CC1(C(=O)NCc2ccc(F)cc2)Cn2nc(-c3ccco3)cc2C(=O)N1Cc1ccccc1 (stereo not drawn)
13.6

Next entry: CN(C)C(=O)c1ccc(OC2CCN(Cc3ccccn3)C2)nc1 (stereo not drawn)
6.6

Data origin, for the record: paper PMC9775191
